Here, molecules appear alongside IC50 reported for Aurora kinase B (Homo sapiens, UniProt Q96GD4) in the literature.

# input Short answer please: IC50, Aurora kinase B (Homo sapiens, UniProt Q96GD4), entry Cn1cc(Nc2ncc3cnn(C4CCC5(CC5)C4)c3n2)cc1C(N)=O (stereo not given)
# output 19 nM

# input Short answer please: IC50, Aurora kinase B (Homo sapiens, UniProt Q96GD4), entry CCC(c1cc(Nc2nc(C)cn3c(-c4cn[nH]c4)cnc23)sn1)N1CCOCC1 (racemic)
# output ≤ 13 nM

# input Short answer please: IC50, Aurora kinase B (Homo sapiens, UniProt Q96GD4), entry `Cc1cn2c(-c3cn[nH]c3)cnc2c(Nc2cc(Cc3ccc(F)cn3)ns2)n1`
# output < 13 nM

# input Short answer please: IC50, Aurora kinase B (Homo sapiens, UniProt Q96GD4), entry `COc1cc2ncnc(Nc3ccc(-c4nc5ccccc5s4)c(O)c3)c2cc1OCCCN1CCN(C)CC1`
# output 640 nM

New cases:
# input Short answer please: IC50, Aurora kinase B (Homo sapiens, UniProt Q96GD4), entry `Cc1cccc(NC(=O)Nc2ccc(-c3csc4c(-c5ccccc5)cnc(N)c34)cc2)c1`
# output 3280 nM

###

Here, molecules appear alongside IC50 reported for Aurora kinase B (Homo sapiens, UniProt Q96GD4) in the literature.

Here's what some known entries look like.
# input Short answer please: IC50, Aurora kinase B (Homo sapiens, UniProt Q96GD4), entry `CCOC(=O)N1CCN(Cc2cc(Nc3nc(C)cn4c(-c5cn[nH]c5)cnc34)sn2)CC1`
# output ≤ 0.013 µM

# input Short answer please: IC50, Aurora kinase B (Homo sapiens, UniProt Q96GD4), entry `c1cc(Nc2ncnc3nc[nH]c23)cc(-c2nc3ccccc3s2)c1`
# output > 10 µM

# input Short answer please: IC50, Aurora kinase B (Homo sapiens, UniProt Q96GD4), entry `COc1cc(Br)cc2[nH]cc(-c3oc(-c4ccc[nH]4)nc3I)c12`
# output > 10 µM

Now for a further molecule.
# input Short answer please: IC50, Aurora kinase B (Homo sapiens, UniProt Q96GD4), entry `Cc1cn2c(-c3cn[nH]c3)cnc2c(Nc2cc(Cc3cccc(CN4CCCCC4)n3)ns2)n1`
# output < 0.013 µM

###

Here, compounds appear alongside IC50 reported for Aurora kinase B (Homo sapiens) in the literature.
Give the value in nM but do not write nM after it.

Here's what some known entries look like.
# input What value of IC50 has been recorded for this entry: `Cc1cc(Nc2nc(C(=O)c3ccccc3)nc3ccccc23)n[nH]1`
# output 11500

# input What value of IC50 has been recorded for this entry: Cc1cn2c(-c3cnn(CC(=O)Nc4cccc(F)n4)c3)cnc2c(Nc2cc(CN3CCCC(C)C3)ns2)n1 (stereo not drawn)
# output 28

# input What value of IC50 has been recorded for this entry: `C[C@@H]1COCCN1c1cc(-c2ccc3c(N)[nH]nc3c2)nc(N)n1`
# output 25100

# input What value of IC50 has been recorded for this entry: CCOC(=O)c1[nH]cc2c1NC1=C(C(=O)CN(Cc3ccccc3)C1)C2c1ccc(Sc2nc3ccccc3[nH]2)o1 (racemic)
# output 8

# input What value of IC50 has been recorded for this entry: `CCn1cc(-c2ccnc3[nH]c(-c4cccc(CN(C)C)c4)cc23)c(-c2ccc(NC(=O)Nc3ccccc3)cc2)n1`
# output 20

New cases:
# input What value of IC50 has been recorded for this entry: `Cn1cc(Nc2ncc3cnn([C@@H]4C[C@H]5C[C@H]5C4)c3n2)cc1C(=O)N1CCC[C@H]1C(N)=O`
# output 4

# input What value of IC50 has been recorded for this entry: `COc1cc2nccc(Oc3ccc4c(C(N)=O)cccc4c3)c2cc1C(N)=O`
# output 390

###

Here, compounds appear alongside pIC50 reported for Aurora kinase B (Homo sapiens) in the literature.
Field pIC50 (float): negative decimal logarithm of the concentration in molar.

# input What value of pIC50 has been recorded for this entry: `COc1cc(C(=O)Nc2ccc(NC(=O)c3ccccn3)cc2)ccc1O`
# output 5.23

# input What value of pIC50 has been recorded for this entry: `Clc1ccc2[nH]c(Nc3ccc(CCNc4ncnc5ccsc45)cc3)nc2c1`
# output 8.10

# input What value of pIC50 has been recorded for this entry: `CCNc1cc(-c2ccc3c(N)[nH]nc3c2)nc(N)n1`
# output 5.00

# input What value of pIC50 has been recorded for this entry: `CCN1CCN(c2ccc(-c3n[nH]c4cc([C@@H]5C[C@@]56C(=O)Nc5ccc(OC)cc56)ccc34)cc2)CC1`
# output 8.07

Now for a further compound.
# input What value of pIC50 has been recorded for this entry: `CC(C)(C)OC(=O)N[C@H]1CCCN(c2cc(-c3ccc4c(N)n[nH]c4c3)nc(N)n2)C1`
# output 6.50

###

Here, compounds appear alongside IC50 reported for Aurora kinase B (Homo sapiens, UniProt Q96GD4) in the literature.
Could you please classify the records by IC50 using these ranges: A = under 50 nM, B = from 50 nM up to 600 nM, C = 600 nM and over

# input Quick check: band for `Cc1cn2c(-c3cnn(CC(=O)NCc4ccc(F)cc4)c3)cnc2c(Nc2cc(CN3CCCCC3)ns2)n1`
# output A

# input Quick check: band for `COc1ccc(-n2cnc3ccc(-c4nnc(SCc5cccc(C#N)c5)o4)cc32)cc1`
# output C

# input Quick check: band for `Cc1ccc(Cc2cc(Nc3nc(C)cn4c(-c5cn[nH]c5)cnc34)sn2)nc1`
# output A

# input Quick check: band for `Cc1cccc(NC(=O)Nc2ccc(-c3csc4c(-c5ccoc5)cnc(N)c34)cc2)c1`
# output B

New cases:
# input Quick check: band for `CC(C)[C@@H](NC(=O)OC(C)(C)C)C(=O)Nc1ccc2ncnc(Nc3cccc(C(F)(F)F)c3)c2c1`
# output C

# input Quick check: band for `CCn1cc(-c2ccnc3[nH]c(-c4ccc(CN5CCOCC5)cc4)cc23)c(-c2ccc(NC(=O)Nc3ccccc3)cc2)n1`
# output B

# input Quick check: band for `CC(C)(C)C(=O)N1Cc2c(NC(=O)c3cc(F)cc(F)c3)n[nH]c2C1(C)C`
# output C

# input Quick check: band for `CN1CCN(C(=O)c2cc(Nc3ncc4cc(C(=O)O)n(C5CCCC5)c4n3)cn2C)CC1`
# output C

###

Here, molecules appear alongside IC50 reported for Aurora kinase B (Homo sapiens) in the literature.

Here's what some known entries look like.
# input Short answer please: IC50, Aurora kinase B (Homo sapiens), entry `Cc1cc(Nc2nn(Cc3cc(F)ccc3F)c(=O)c3ccccc23)n[nH]1`
# output > 100000 nM

# input Short answer please: IC50, Aurora kinase B (Homo sapiens), entry `O=C(Nc1c[nH]nc1-c1nc2cc(CN3CCOCC3)ccc2[nH]1)NC1CC1`
# output < 3 nM

# input Short answer please: IC50, Aurora kinase B (Homo sapiens), entry `Cc1cn2c(-c3cn[nH]c3)cnc2c(Nc2cc(CN3C[C@H]4CC[C@@H](C3)O4)ns2)n1`
# output ≤ 13 nM

New cases:
# input Short answer please: IC50, Aurora kinase B (Homo sapiens), entry `c1ccc2sc(-c3ccc(Nc4ncnc5nc[nH]c45)cc3)nc2c1`
# output > 10000 nM

# input Short answer please: IC50, Aurora kinase B (Homo sapiens), entry `Clc1cnc2nc(Nc3ccc(CCNc4ncnc5ccsc45)cc3)[nH]c2c1`
# output 10 nM

# input Short answer please: IC50, Aurora kinase B (Homo sapiens), entry `Cc1cc(S(N)(=O)=O)ccc1Nc1ncc2c(n1)N(C)c1ccccc1C(=O)N2C`
# output 9400 nM

# input Short answer please: IC50, Aurora kinase B (Homo sapiens), entry `Cc1cnc(Nc2cnn(C)c2)nc1N1CC(CC#N)(N2CCN(C)CC2)C1`
# output 764 nM

# input Short answer please: IC50, Aurora kinase B (Homo sapiens), entry `COCCNC(=O)c1cccc2cc(Oc3ccnc4cc(OC)c(C(N)=O)cc34)ccc12`
# output 233 nM

###

Here, compounds appear alongside IC50 reported for Aurora kinase B (Homo sapiens, UniProt Q96GD4) in the literature.

# input Short answer please: IC50, Aurora kinase B (Homo sapiens, UniProt Q96GD4), entry `COc1cc2ncnc(Nc3ccc(-c4nc5ccccc5s4)c(OC)c3)c2cc1OCCCN1CCN(C)CC1`
# output > 10 µM

# input Short answer please: IC50, Aurora kinase B (Homo sapiens, UniProt Q96GD4), entry `COc1ncc(-c2cc3c(c(NC(=O)CN4CCOCC4)c2)COC3)cc1NS(C)(=O)=O`
# output > 10 µM

Now for a further compound.
# input Short answer please: IC50, Aurora kinase B (Homo sapiens, UniProt Q96GD4), entry COCC(c1cc(Nc2nc(C)cn3c(-c4cn[nH]c4)cnc23)sn1)N1CCOCC1 (racemic)
# output ≤ 0.013 µM

###

Here, compounds appear alongside IC50 reported for Aurora kinase B (Homo sapiens) in the literature.

# input Short answer please: IC50, Aurora kinase B (Homo sapiens), entry `CC(=O)N1CCN(Cc2cc(Nc3nc(C)cn4c(-c5cn[nH]c5)cnc34)sn2)CC1`
# output ≤ 0.013 µM

# input Short answer please: IC50, Aurora kinase B (Homo sapiens), entry `Cc1cccc(C)c1Nc1ncnc2ccc(NC(=O)CNC(=O)OC(C)(C)C)cc12`
# output > 100 µM

New cases:
# input Short answer please: IC50, Aurora kinase B (Homo sapiens), entry `O=C(c1ccc(Nc2nc(C3CC3)cn3c(-c4cn[nH]c4)cnc23)c(Cl)c1)N1CCOCC1`
# output > 20 µM

# input Short answer please: IC50, Aurora kinase B (Homo sapiens), entry `CC(C)C[C@@H](NC(=O)OC(C)(C)C)C(=O)Nc1ccc2ncnc(Nc3cccc(Br)c3)c2c1`
# output > 100 µM

# input Short answer please: IC50, Aurora kinase B (Homo sapiens), entry `Cc1ccc(C(=O)c2nc(Nc3cc(C)[nH]n3)c3ccc(Cl)cc3n2)cc1`
# output > 100 µM

# input Short answer please: IC50, Aurora kinase B (Homo sapiens), entry `CSCC[C@@H](NC(=O)OC(C)(C)C)C(=O)Nc1ccc2ncnc(Nc3ccc(F)c(Cl)c3)c2c1`
# output > 100 µM
